# assay info: qHTS for Inhibitors of human tyrosyl-DNA phosphodiesterase 1 (TDP1): qHTS in cells in absence of CPT; also: nearly all actives have a fitted effect of over 55% in size
# measurement conditions: DT40 Tdp1-/- hTDP1 cells, no CPT, ATP luminescence, 48 h
# Procedure: Human tyrosyl-DNA phosphodiesterase 1 (TDP1) is a novel repair gene, and we propose to use it as a new target for anticancer drug development. […] For the primary screen, Tdp1-/-;hTDP1 cells will be exposed to small molecules in the presence or absence of CPT, and their growth kinetics will be evaluated after 48 hours by measuring ATP activity. […] The hit compounds will then be evaluated in the presence or absence of CPT using Tdp1-/- cells. […]
Hit rate of the full screen: of about 420,000 compounds, about 64,000 (15%) were called active. Roughly 27% stayed inconclusive and do not appear here. Calls follow the shape of the dose curve; as a rule, active = well fitted inhibition curve with a large enough effect; inconclusive = small, poorly fitted or top-dose-only effect; inactive = flat fitted curve, though single readings scatter. These entries were drawn from the full list.
Outcome codes: T = active, F = inactive

# compound, discrete label
measured = [
    ("O=C(/C=C/c1ccc([N+](=O)[O-])o1)NNC(=O)c1ccc(F)cc1", "T"),
    ("CCOc1ccc(N(CC(=O)Nc2cccc(OC)c2)S(C)(=O)=O)cc1", "F"),
    ("COc1ccc(NC(=O)N(C)C[C@H]2Oc3ccc(NC(=O)C4CC4)cc3C(=O)N([C@H](C)CO)C[C@@H]2C)cc1", "F"),
    ("COc1ccccc1C1C2=C(COC2=O)Nc2cc3c(cc21)OCO3 (stereo not given)", "F"),
    ("CN1C(=O)CC(N2CCN(c3ccccn3)CC2)C1=O (stereo not given)", "F"),
    ("Cc1cc(C2=NNC(=Nc3ccc(S(=O)(=O)N4CCOCC4)cc3)SC2)c(C)n1CC1CCCO1 (stereo not given)", "T"),
    ("CCN(CC)C(=O)C1=C(C)N(Cc2ccccc2)C(=O)C(CC(=O)NC(c2ccccc2)c2ccccc2)C1 (stereo not given)", "T"),
    ("O=C(CSc1ccccc1)Nc1ccc(C(=O)Nc2cccc(O)c2)cc1", "F"),
    ("CC(=O)c1c(-c2ccccc2)c2ccccc2[nH]c1=O", "F"),
    ("COc1cc(N=Cc2c(O)[nH]c3ccccc23)cc(OC)c1OC", "T"),
]
